System: ginsenoside glycosidase I from ginseng plants
Assay: Hydrolysis of ginsenosides with fraction 52 (ginsenoside glycosidase I) from ginseng plant
Assay type: biochemical
Settings: Fraction 52; substrate 0.5%; 50° C., pH 5.0, 18 hours
measured_quantity: Percentage of Rd in the reaction product (%)
Only the number, expressed in %, is required.

Query the reported Percentage of Rd in the reaction product for ginsenoside glycosidase I from ginseng plants; item: CC(C)=CCC[C@](C)(O[C@@H]1O[C@H](CO[C@@H]2O[C@H](CO)[C@@H](O)[C@H](O)[C@H]2O)[C@@H](O)[C@H](O)[C@H]1O)[C@H]1CC[C@]2(C)[C@@H]1[C@H](O)C[C@@H]1[C@@]3(C)CC[C@H](O[C@@H]4O[C@H](CO)[C@@H](O)[C@H](O)[C@H]4O[C@@H]4O[C@H](CO)[C@@H](O)[C@H](O)[C@H]4O)C(C)(C)[C@@H]3CC[C@]12C [Rb1, ginsenoside Rb1] 30

###

Recorded Percentage of F2 in the reaction product by entry
System: ginsenoside glycosidase I
Assay: Hydrolysis of ginsenosides with Fraction 36 (ginsenoside glycosidase I)
Format: biochemical, Aspergillus niger
Conditions: Fraction 36; substrates Rb1, Rb2, Rc, Rd 0.5%; Rg3, F2, Rh2, C—K, Rg2 0.05%; pH 5.0, 30° C.
I only need the number, in %, no unit after it.

Check out these entries, answers already filled in.
# molecule, measurement_unit, Percentage of F2 in the reaction product
records = [
    ("CC(C)=CCC[C@](C)(O[C@@H]1O[C@H](CO[C@@H]2O[C@@H](CO)[C@H](O)[C@H]2O)[C@@H](O)[C@H](O)[C@H]1O)[C@H]1CC[C@]2(C)[C@@H]1[C@H](O)C[C@@H]1[C@@]3(C)CC[C@H](O[C@@H]4O[C@H](CO)[C@@H](O)[C@H](O)[C@H]4O[C@@H]4O[C@H](CO)[C@@H](O)[C@H](O)[C@H]4O)C(C)(C)[C@@H]3CC[C@]12C [Rc, ginsenoside Rc]", "%", 36),
    ("CC(C)=CCC[C@](C)(O[C@@H]1O[C@H](CO)[C@@H](O)[C@H](O)[C@H]1O)[C@H]1CC[C@]2(C)[C@@H]1[C@H](O)C[C@@H]1[C@@]3(C)CC[C@H](O[C@@H]4O[C@H](CO)[C@@H](O)[C@H](O)[C@H]4O[C@@H]4O[C@H](CO)[C@@H](O)[C@H](O)[C@H]4O)C(C)(C)[C@@H]3CC[C@]12C [Rd, ginsenoside Rd]", "%", 50),
]

# ---- query molecule ----
Dear colleague, I am looking for the recorded Percentage of F2 in the reaction product of the following molecule: CC(C)=CCC[C@](C)(O[C@@H]1O[C@H](CO[C@@H]2O[C@H](CO)[C@@H](O)[C@H](O)[C@H]2O)[C@@H](O)[C@H](O)[C@H]1O)[C@H]1CC[C@]2(C)[C@@H]1[C@H](O)C[C@@H]1[C@@]3(C)CC[C@H](O[C@@H]4O[C@H](CO)[C@@H](O)[C@H](O)[C@H]4O[C@@H]4O[C@H](CO)[C@@H](O)[C@H](O)[C@H]4O)C(C)(C)[C@@H]3CC[C@]12C [Rb1, ginsenoside Rb1] 38
